// growth inhibition lookup, one value per entry
Test: NCI Yeast Anticancer Drug Screen. Data for the mec2-1 strain (AID 157)
Conditions: S. cerevisiae mec2-1 strain, at 50.0 µM, hits give high values
Experimental: Growth inhibition of yeast strains with defined genetic alterations is measured as a screen for potential anti-cancer activity. Selected strains with alterations in DNA damage repair or cell cycle control were exposed to compounds and growth inhibition was measured relative to vehicle treated controls. The strain used in this assay is mec2-1
The panel holds about 79,000 compounds, 15% with a hit somewhere; the sample as a whole holds those more often.
Output spec: scalar in %, unitless text.

Record excerpt, results attached:
Compound | growth inhibition / %
Cc1cccc2c1Oc1ccccc1C2N1C(=O)/C(=C/c2cccs2)SC1=S (stereo unspecified) | 53.8
CCN(CC)CCSCCCNc1cc(OC)cc2cccnc12 | 59.6
Cc1cccc[c]1[Sn]([Cl])([O][Sn]([Cl])([c]1ccccc1C)[c]1ccccc1C)[c]1ccccc1C | 90.8

The reported value for CN(C)C(=O)Nc1ccc(Cc2ccc(NC(=O)N(C)C)cc2)cc1 in terms of growth inhibition is -13.2

So for CC1CC(=O)OC(C(=O)c2ccccc2)N1c1ccc(C(F)(F)F)cc1N (stereo unspecified) , the logged growth inhibition turned out to be 65

Per the record, CCCOc1ccc(/C=N/NC(N)=S)cc1 has growth inhibition of 59.5
